Ref: ChEMBL document CHEMBL4190200

# Target of assay: Bifunctional epoxide hydrolase 2 (Homo sapiens) (UniProt P34913)
# Test: Inhibition of soluble epoxide hydrolase (unknown origin) using PHOME as substrate at 100 uM measured for 1 hr by fluorescence assay relative to control

Molecule: C[C@@H]1C[C@]23OCC(C)(O)[C@H]2O[C@@]2(O3)[C@H]1[C@@]1(C)CC[C@@]34C[C@@]35CC[C@H](O[C@@H]3OC[C@@H](O)[C@H](O)[C@H]3O)C(C)(C)[C@@H]5CC=C4[C@]1(C)[C@H]2O (some centres not stated)
U: %
inhibition: 63.2
//
Molecule: CC(=O)OC(C)(C)[C@H]1O[C@@]23O[C@@H]1C[C@@H](C)[C@@H]2[C@@]1(C)CC[C@@]24C[C@@]25CC[C@H](O[C@@H]2OC[C@@H](O)[C@H](O)[C@H]2O)C(C)(C)[C@@H]5CC=C4[C@]1(C)[C@H]3O
U: %
inhibition: 76.7

---

inhibition values, listed per item
# Target of assay: Bifunctional epoxide hydrolase 2 (Homo sapiens)
# Sequence (whole entry): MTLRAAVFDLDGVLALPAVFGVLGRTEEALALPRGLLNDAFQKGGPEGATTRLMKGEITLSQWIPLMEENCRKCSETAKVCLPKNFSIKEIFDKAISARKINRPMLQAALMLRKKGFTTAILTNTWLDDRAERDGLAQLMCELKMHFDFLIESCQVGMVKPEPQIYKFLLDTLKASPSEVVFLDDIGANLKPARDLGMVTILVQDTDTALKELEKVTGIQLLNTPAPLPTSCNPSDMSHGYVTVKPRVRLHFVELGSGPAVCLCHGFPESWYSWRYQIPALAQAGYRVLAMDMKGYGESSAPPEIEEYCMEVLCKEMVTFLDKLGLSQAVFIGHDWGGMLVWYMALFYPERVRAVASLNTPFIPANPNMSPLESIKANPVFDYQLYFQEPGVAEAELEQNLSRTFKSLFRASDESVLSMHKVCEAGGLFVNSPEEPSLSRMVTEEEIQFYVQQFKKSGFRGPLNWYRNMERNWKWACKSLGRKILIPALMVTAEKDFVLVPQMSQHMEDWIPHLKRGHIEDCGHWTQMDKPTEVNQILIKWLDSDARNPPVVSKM
# Test: Inhibition of soluble epoxide hydrolase (unknown origin) using PHOME as substrate at 100 uM measured for 1 hr by fluorescence assay relative to control
Measure: inhibition (%)

Smiles str: C[C@@H]1C[C@H]2O[C@]3(O[C@H]2C(C)(C)O)[C@H]1[C@@]1(C)[C@H](O)C[C@@]24C[C@@]25CC[C@H](O[C@@H]2OC[C@@H](O)[C@H](O)[C@H]2O)C(C)(C)[C@@H]5CC=C4[C@]1(C)[C@H]3O
Measure: inhibition
Measured: 61.9

Smiles str: C[C@H]1[C@H]2[C@@H](O[C@@]3(O)[C@@H]1OC(C)(C)[C@H]3O)[C@H](O)[C@@]1(C)[C@@H]3CC[C@H]4C(C)(C)[C@@H](O[C@@H]5OC[C@@H](O)[C@H](O)[C@H]5O)CC[C@@]45C[C@@]35CC[C@]21C
Measure: inhibition
Measured: 70.2

Smiles str: C[C@@H]1CC(=O)[C@H](O)[C@]2(O)[C@H]1[C@@]1(C)CC[C@@]34C[C@@]35CC[C@H](O[C@@H]3OC[C@@H](O)[C@H](O)[C@H]3O)C(C)(C)[C@@H]5CC=C4[C@]1(C)[C@H]2O
Measure: inhibition
Measured: 69.6

Smiles str: CC(=O)O[C@H]([C@H]1C[C@@H](C)[C@H]2[C@@](O)(O1)[C@H](O)[C@@]1(C)[C@@H]3CC[C@H]4C(C)(C)[C@@H](O[C@@H]5OC[C@@H](O)[C@H](O)[C@H]5O)CC[C@@]45C[C@@]35CC[C@]21C)C(C)(C)O
Measure: inhibition
Measured: 66.1

Smiles str: CC(=O)O[C@H]1[C@H](O[C@H]2CC[C@]34C[C@]35CC[C@]3(C)[C@H]6[C@H](C)C[C@H]7O[C@@]6(O[C@H]7C(C)(C)O)[C@H](O)[C@@]3(C)C5=CC[C@H]4C2(C)C)OC[C@@H](O)[C@@H]1O
Measure: inhibition
Measured: 64.9

Smiles str: C[C@@H]1C[C@H]([C@@H](O)C(C)(C)O)O[C@]2(O)[C@H]1[C@@]1(C)CC[C@@]34C[C@@]35CC[C@H](O[C@@H]3OC[C@@H](O)[C@H](O)[C@H]3O)C(C)(C)[C@@H]5CC=C4[C@]1(C)[C@H]2O
Measure: inhibition
Measured: 84.8

Smiles str: COC(C)(C)[C@H]1O[C@@]23O[C@@H]1C[C@@H](C)[C@@H]2[C@@]1(C)CC[C@@]24C[C@@]25CC[C@H](O[C@@H]2OC[C@@H](O)[C@H](O)[C@H]2O)C(C)(C)[C@@H]5CC=C4[C@]1(C)[C@H]3O
Measure: inhibition
Measured: 75.6

Smiles str: CC(=O)O[C@H](C[C@@H](C)[C@H]1C(=O)[C@H](O)[C@@]2(C)C3=CC[C@H]4C(C)(C)[C@@H](O[C@@H]5OC[C@@H](O)[C@H](O)[C@H]5O)CC[C@@]45C[C@@]35CC[C@]12C)[C@@H](O)C(C)(C)O
Measure: inhibition
Measured: 72.4
